# Assay system: Short transient receptor potential channel 4 (Mus musculus) (UniProt Q9QUQ5)
# Sequence (Q9QUQ5 whole entry, looked up): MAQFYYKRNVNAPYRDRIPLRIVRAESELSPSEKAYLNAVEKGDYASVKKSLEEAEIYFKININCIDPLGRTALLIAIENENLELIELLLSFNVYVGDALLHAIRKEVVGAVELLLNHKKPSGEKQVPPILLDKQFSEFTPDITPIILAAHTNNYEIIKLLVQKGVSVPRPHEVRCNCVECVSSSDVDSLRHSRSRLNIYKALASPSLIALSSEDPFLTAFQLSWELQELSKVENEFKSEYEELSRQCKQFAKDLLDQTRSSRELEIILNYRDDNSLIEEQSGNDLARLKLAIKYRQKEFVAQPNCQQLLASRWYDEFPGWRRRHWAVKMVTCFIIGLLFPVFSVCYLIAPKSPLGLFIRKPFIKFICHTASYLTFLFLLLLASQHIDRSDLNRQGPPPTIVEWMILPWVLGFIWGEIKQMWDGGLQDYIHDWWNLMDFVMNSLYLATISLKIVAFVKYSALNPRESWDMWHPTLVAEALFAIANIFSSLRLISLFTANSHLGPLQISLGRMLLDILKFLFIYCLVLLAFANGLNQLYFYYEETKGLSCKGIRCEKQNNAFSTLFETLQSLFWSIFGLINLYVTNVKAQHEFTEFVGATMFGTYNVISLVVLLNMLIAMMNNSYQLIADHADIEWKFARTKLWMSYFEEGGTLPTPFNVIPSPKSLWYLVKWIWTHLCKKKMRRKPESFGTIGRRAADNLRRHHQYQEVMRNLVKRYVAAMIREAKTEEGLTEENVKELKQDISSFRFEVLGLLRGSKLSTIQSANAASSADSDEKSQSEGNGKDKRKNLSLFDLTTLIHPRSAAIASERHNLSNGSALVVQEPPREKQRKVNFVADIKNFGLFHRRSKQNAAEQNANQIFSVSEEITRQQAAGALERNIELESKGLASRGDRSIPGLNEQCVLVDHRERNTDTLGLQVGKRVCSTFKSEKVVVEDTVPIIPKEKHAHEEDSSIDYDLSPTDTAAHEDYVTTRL
# Assay remarks: blockers of DAMGO-evoked TRPC4 calcium flux – cell-based, second round, Fluo4, HEK293 TRPC4beta/mu-opioid, 1 µM, confirmation (AID 2637)
# Condition description: at 1 µM
Calls of active or inactive are those of the source.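 Rule for the calls: active = calcium signal ratio cut to more than 3 SD under the fully stimulated control mean yet still positive, in both repeats and the primary screen; inactive = the rest.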
Mark one answer only. Choices: Yes (active), No (inactive)

Completed entries (count: 9):
1) COc1ccc(SC[C@H](Cc2ccccc2)N2CCN(C)CCC2=O)cc1	Yes
2) COc1ccc(Cn2nnnc2C(c2cc3cc(C)ccc3[nH]c2=O)N2CCN(C)CC2)cc1 (stereo not given)	No
3) COC(=O)c1cccc(NC(=S)Nc2cccc(Cl)c2Cl)c1	No
4) C=CCNC(=O)C(=O)NCC1CCCN1S(=O)(=O)c1cccs1 (stereo not given)	No
5) Cc1ccc(Cn2c(SCCN3CCCCC3)nc3c2c(=O)n(C)c(=O)n3C)cc1	No
6) CCSc1nnc([C@H](Cc2c[nH]c3ccccc23)NC(=O)OC(C)(C)C)o1	No
7) CCOC(=O)C1(CCc2ccccc2)CCN(Cc2ccccn2)CC1	No
8) Cc1cc(/C=C2/C(=N)N3C(=NC2=O)SN=C3S(C)(=O)=O)c(C)n1-c1ccccc1F	No
9) NC(=O)c1nsc(C(=O)N(Cc2ccco2)C(C(=O)NCc2ccc(F)cc2)c2ccc(O)cc2)c1N (stereo not given)	Yes

Here is the next item to consider.
Returns: the outcome recorded for "O=C(CN1CCN(c2ncc(C(F)(F)F)cc2Cl)CC1)N1CCN(c2ncc(C(F)(F)F)cc2Cl)CC1" in this assay.
No
